Biological target: Vitamin D3 receptor (Mus musculus) (UniProt P48281)
Sequence (whole entry): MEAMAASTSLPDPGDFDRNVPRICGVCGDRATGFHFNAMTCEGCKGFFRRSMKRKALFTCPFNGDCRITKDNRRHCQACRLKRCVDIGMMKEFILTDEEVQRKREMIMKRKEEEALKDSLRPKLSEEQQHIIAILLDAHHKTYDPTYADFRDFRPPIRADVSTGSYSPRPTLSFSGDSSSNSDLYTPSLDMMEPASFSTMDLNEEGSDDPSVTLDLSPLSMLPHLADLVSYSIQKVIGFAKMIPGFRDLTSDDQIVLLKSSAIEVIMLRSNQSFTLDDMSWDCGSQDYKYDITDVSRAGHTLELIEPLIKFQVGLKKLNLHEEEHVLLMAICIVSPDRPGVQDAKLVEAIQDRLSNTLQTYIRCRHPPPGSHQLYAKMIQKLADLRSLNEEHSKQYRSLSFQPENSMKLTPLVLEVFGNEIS
Experiment: Activation of VDR in mouse ASZ001 cells assessed as upregulation of CYP24A1 mRNA expression at 5 uM after 24 hrs by RT-PCR analysis relative to DMSO-treated control
Assay type: cell-based
OBSERVATION_TYPE: fold change (FC)
Number, no unit, nothing else.

CC(C)CCC[C@@H](C)[C@H]1CC[C@H]2[C@@H](OC(=O)c3cccc(N)c3)CCC[C@]12C = 2.5

Query: Record request: fold change (FC) value, item CC(C)CCC[C@@H](C)[C@H]1CC[C@H]2[C@@H](OC(=O)c3cc(O)cc(O)c3)CCC[C@]12C
Reply: 3.6

Query: Record request: fold change (FC) value, item CC(C)CCC[C@@H](C)[C@H]1CC[C@H]2[C@@H](OC(=O)c3cccc(O)c3)CCC[C@]12C
Reply: 1.9

Query: Record request: fold change (FC) value, item C=C1CC[C@H](O)C/C1=C/C=C1\CCC[C@]2(C)[C@@H]([C@H](C)CCCC(C)C)CC[C@@H]12 [CHOLECALCIFEROL]
Reply: 764

Query: Record request: fold change (FC) value, item CC(C)CCC[C@@H](C)[C@H]1CC[C@H]2[C@@H](OC(=O)c3ccc(N)cc3)CCC[C@]12C
Reply: 2.1

Query: Record request: fold change (FC) value, item CC(C)CCC[C@@H](C)[C@H]1CC[C@H]2[C@@H](OC(=O)c3ccc(O)cc3)CCC[C@]12C
Reply: 6.3

Query: Record request: fold change (FC) value, item CC(C)CCC[C@@H](C)[C@H]1CC[C@H]2[C@@H](OC(=O)c3cc(O)c(O)c(O)c3)CCC[C@]12C
Reply: 1.3

Query: Record request: fold change (FC) value, item CC(C)CCC[C@@H](C)[C@H]1CC[C@H]2[C@@H](OC(=O)c3ccccn3)CCC[C@]12C
Reply: 4.8

Values were extracted from ChEMBL document CHEMBL3259768.
